assay: Kinetic solubility test in enzymatic assay medium; type: physicochemical; settings: aqueous HEPES buffer with 5 % DMSO, pH 8, aqueous with cosolvent or surfactant or cyclodextrin, kinetic from dmso stock
Below, each of the compounds is paired with its reported solubility kinetic value.
Reply numerically in µM, unit not repeated.

Examples from the recorded data:
compound	solubility kinetic [µM]
O=C(Nc1cccc(C(F)(F)F)c1)Nc1nc2cc(Cl)c(Cl)cc2[nH]1 [Compound 59]	2.53
FC(F)(F)c1ccc2nc(-c3nc4cc(Cl)c(Cl)cc4[nH]3)[nH]c2c1 [Compound 55]	2.9

Now let's try a different one.
**Q:** Query: solubility kinetic; subject: FC(F)(F)c1cccc(Nc2nc3cc(Cl)c(Cl)cc3[nH]2)c1 [Compound 56]
**A:** 7
